Values were extracted from ChEMBL document CHEMBL3039007.

Target: Solute carrier organic anion transporter family member 1B3 (Homo sapiens, UniProt Q9NPD5)
Sequence (Q9NPD5 whole entry): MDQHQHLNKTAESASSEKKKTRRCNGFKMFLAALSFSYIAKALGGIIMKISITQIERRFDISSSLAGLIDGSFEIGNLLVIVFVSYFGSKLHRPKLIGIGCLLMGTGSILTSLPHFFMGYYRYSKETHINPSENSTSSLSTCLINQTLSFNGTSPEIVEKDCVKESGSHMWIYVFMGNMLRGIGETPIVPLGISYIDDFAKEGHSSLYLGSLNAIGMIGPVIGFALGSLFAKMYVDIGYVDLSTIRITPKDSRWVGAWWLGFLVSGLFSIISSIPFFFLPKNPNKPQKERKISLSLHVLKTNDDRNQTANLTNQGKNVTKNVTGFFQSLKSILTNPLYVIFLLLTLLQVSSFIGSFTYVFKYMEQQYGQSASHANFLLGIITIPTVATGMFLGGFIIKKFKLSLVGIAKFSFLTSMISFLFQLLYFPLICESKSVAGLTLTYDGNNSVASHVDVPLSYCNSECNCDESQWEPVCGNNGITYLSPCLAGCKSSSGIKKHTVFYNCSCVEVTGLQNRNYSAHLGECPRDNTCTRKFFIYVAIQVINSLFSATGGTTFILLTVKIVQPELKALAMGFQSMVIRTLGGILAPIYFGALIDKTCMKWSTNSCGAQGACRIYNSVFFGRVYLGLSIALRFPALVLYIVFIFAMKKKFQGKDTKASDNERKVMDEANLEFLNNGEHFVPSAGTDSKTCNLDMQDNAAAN
Details: chinese hamster, cho, 10 µM
// reported residual activity for each item listed
reported metric: residual activity (%)

• CC(C)NCC(O)c1ccc2ccccc2c1.Cl (stereo unspecified) = 87.91
• CC(C)Oc1ccc2c(=O)c(-c3ccccc3)coc2c1 = 84.86
• COc1cc(OC)c(OC)cc1C=O = 59.17
• NCCCC(=O)O = 81.28
• CC(C)=CC1C(C(=O)O)C1(C)C (stereo unspecified) = 97.37
• CNc1ccccc1C(=O)N1CCc2c([nH]c3ccccc23)C1=O = 98.18

---

Molecular target: Solute carrier organic anion transporter family member 1B1 (Homo sapiens, UniProt Q9Y6L6)
Sequence (Q9Y6L6 whole entry): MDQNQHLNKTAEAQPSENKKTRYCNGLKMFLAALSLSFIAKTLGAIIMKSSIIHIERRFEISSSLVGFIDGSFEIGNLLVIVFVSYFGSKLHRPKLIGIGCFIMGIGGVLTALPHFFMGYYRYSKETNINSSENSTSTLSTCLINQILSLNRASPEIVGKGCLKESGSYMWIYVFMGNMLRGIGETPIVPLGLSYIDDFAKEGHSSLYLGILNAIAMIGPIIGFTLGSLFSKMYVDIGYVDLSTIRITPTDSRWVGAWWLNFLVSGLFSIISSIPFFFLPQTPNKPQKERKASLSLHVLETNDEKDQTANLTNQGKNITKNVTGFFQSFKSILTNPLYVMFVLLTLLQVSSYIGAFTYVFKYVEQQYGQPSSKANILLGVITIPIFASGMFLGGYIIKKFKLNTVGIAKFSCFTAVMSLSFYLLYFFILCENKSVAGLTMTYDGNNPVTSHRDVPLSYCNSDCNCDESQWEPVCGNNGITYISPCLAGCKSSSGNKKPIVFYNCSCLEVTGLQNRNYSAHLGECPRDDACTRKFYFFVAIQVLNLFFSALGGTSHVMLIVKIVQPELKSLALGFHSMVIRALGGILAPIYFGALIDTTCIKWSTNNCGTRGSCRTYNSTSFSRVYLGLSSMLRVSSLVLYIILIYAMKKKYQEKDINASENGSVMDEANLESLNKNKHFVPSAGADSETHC
Details: chinese hamster, cho, 10 µM
Items are presented alongside their recorded residual activity.
reported metric: residual activity (%)

- CCC(N)C(O)c1ccc(O)c(O)c1.Cl (centres undefined) [ETHYLNOREPINEPHRINE HYDROCHLORIDE]: 130.8
- Cn1c(=O)[nH]c(=O)c2[nH]cnc21: 101.5
- CN/C(=N/CCSCc1nc[nH]c1C)NC#N: 120.2
- COc1cc(C)c(C(=O)Oc2cc(C)c(C(=O)O)c(O)c2C)c(O)c1C=O: 23.01
- OC[C@@H](O)[C@@H](O)[C@@H](O)CO: 81.13
- CN(C)CCc1c[nH]c2ccc(CS(=O)(=O)N3CCCC3)cc12: 95.85
- COC(=O)C[C@H]1C(C)(C)[C@H](O)[C@@H]2CC3=C4CC(O)O[C@@H](c5ccoc5)[C@@]4(C)CCC3[C@]1(C)C2=O (stereo partly drawn) [3,16-DIDEOXYMEXICANOLIDE-3alpha-DIOL]: 67.63
- CCCc1ncc(C[n+]2ccccc2C)c(N)n1: 67.38
- NC[C@H]1CC[C@H](C(=O)O)CC1: 81.79
